A collection of sequences and their measured switch fluorescence ratio
Test system: ATP;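 further: ATP exposure 15 min at 22 °C before imaging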
Assay: switch fluorescence ratio, 500 uM ATP over buffer (Cy3 cluster intensity, sum of 5 cycles each) (fold (ratio)); higher = stronger signal-on switching upon ATP binding; sequences stand for … in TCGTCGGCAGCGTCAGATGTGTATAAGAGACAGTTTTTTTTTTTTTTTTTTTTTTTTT…TC
Conditions: aptamer strand: ATP DNA aptamer (quencher-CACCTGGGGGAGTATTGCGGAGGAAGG + anchor), 100 nM annealed; ATP concentration: 500 uM

>  <residues>
AGTTTGGGTA

>  <switch fluorescence ratio>
0.996

$$$$
>  <residues>
TGATGAGGAG

>  <switch fluorescence ratio>
0.996

$$$$
>  <residues>
GTTATGGTTT

>  <switch fluorescence ratio>
0.986

$$$$
>  <residues>
TACAGGGAAC

>  <switch fluorescence ratio>
0.974

$$$$
>  <residues>
TGCTCCTGTA

>  <switch fluorescence ratio>
1

$$$$
>  <residues>
ATTTGGAGTC

>  <switch fluorescence ratio>
1

$$$$
>  <residues>
TGTTCCGCCC

>  <switch fluorescence ratio>
2.01

$$$$
>  <residues>
TAGGCCAGTT

>  <switch fluorescence ratio>
0.996

$$$$
>  <residues>
GGGATCTATA

>  <switch fluorescence ratio>
0.972

$$$$
>  <residues>
AGTCCGATTT

>  <switch fluorescence ratio>
1.03

$$$$
>  <residues>
CTCCAAAGCG

>  <switch fluorescence ratio>
1.19

$$$$
>  <residues>
CAGCTGCTGC

>  <switch fluorescence ratio>
1.01

$$$$
>  <residues>
GAGCGGTTAT

>  <switch fluorescence ratio>
1.33

$$$$
>  <residues>
TTGTGGGGTT

>  <switch fluorescence ratio>
0.984

$$$$
>  <residues>
CTGACAGATT

>  <switch fluorescence ratio>
1.11

$$$$
>  <residues>
ACTATGGCCC

>  <switch fluorescence ratio>
1.03

$$$$
>  <residues>
CGTACTGTGG

>  <switch fluorescence ratio>
0.998

$$$$
>  <residues>
CATATCCAGG

>  <switch fluorescence ratio>
1.34

$$$$
>  <residues>
CGTGAAGTCG

>  <switch fluorescence ratio>
0.954

$$$$
>  <residues>
TGTGGTAGGT

>  <switch fluorescence ratio>
1.01

$$$$
>  <residues>
GGAGGAGCTG

>  <switch fluorescence ratio>
0.95

$$$$
>  <residues>
GGAATACGTT

>  <switch fluorescence ratio>
1.08

$$$$
>  <residues>
CGGACGGGTT

>  <switch fluorescence ratio>
0.985

$$$$
>  <residues>
GATTTGACGG

>  <switch fluorescence ratio>
0.983

$$$$
>  <residues>
GGGTTCGTGG

>  <switch fluorescence ratio>
0.997

$$$$
>  <residues>
AGTGGTGGTA

>  <switch fluorescence ratio>
0.998

$$$$
>  <residues>
GCTTGGCTAT

>  <switch fluorescence ratio>
0.989

$$$$
>  <residues>
GTTGTTGAAT

>  <switch fluorescence ratio>
0.992

$$$$
>  <residues>
AAGGTCTTAG

>  <switch fluorescence ratio>
0.968

$$$$
>  <residues>
AGTAGGGGAA

>  <switch fluorescence ratio>
0.995

$$$$
>  <residues>
TGGGGAGGAG

>  <switch fluorescence ratio>
0.995

$$$$
>  <residues>
ACGGTGAGGG

>  <switch fluorescence ratio>
1.02

$$$$
>  <residues>
AATAAATAGG

>  <switch fluorescence ratio>
0.995

$$$$
>  <residues>
TTAAAATGTT

>  <switch fluorescence ratio>
1.01

$$$$
>  <residues>
TAGAGGGGG

>  <switch fluorescence ratio>
1.01

$$$$
>  <residues>
GCTTGTGCTG

>  <switch fluorescence ratio>
0.978

$$$$
>  <residues>
GCTAGGGGTA

>  <switch fluorescence ratio>
0.987

$$$$
>  <residues>
TCTTGTTGGG

>  <switch fluorescence ratio>
1.01

$$$$
>  <residues>
AGTGGGAGGA

>  <switch fluorescence ratio>
0.996

$$$$
>  <residues>
GTTTTGGTCC

>  <switch fluorescence ratio>
0.997

$$$$
>  <residues>
AACGGGTTGG

>  <switch fluorescence ratio>
0.998

$$$$
>  <residues>
TGTTTTAAGG

>  <switch fluorescence ratio>
1.01

$$$$
>  <residues>
GCCAGTCTTT

>  <switch fluorescence ratio>
1

$$$$
>  <residues>
TGCTTTTAGG

>  <switch fluorescence ratio>
0.996

$$$$
>  <residues>
TGGAAGGTTA

>  <switch fluorescence ratio>
1.01

$$$$
>  <residues>
ACTGTTTTCT

>  <switch fluorescence ratio>
1.05

$$$$
>  <residues>
GGCAGGGCTG

>  <switch fluorescence ratio>
0.974

$$$$
>  <residues>
TCACATTATT

>  <switch fluorescence ratio>
1.04

$$$$
>  <residues>
AAGAGGATGG

>  <switch fluorescence ratio>
0.979

$$$$
>  <residues>
TATTACGGCG

>  <switch fluorescence ratio>
1.02

$$$$
>  <residues>
ACCGCACGGA

>  <switch fluorescence ratio>
1.55

$$$$
>  <residues>
CGGAGGGGCG

>  <switch fluorescence ratio>
0.963

$$$$
>  <residues>
TACAGAATCG

>  <switch fluorescence ratio>
1.01

$$$$
>  <residues>
GTTGGGGATC

>  <switch fluorescence ratio>
0.991

$$$$
>  <residues>
TTTATAGTGC

>  <switch fluorescence ratio>
1.01

$$$$
>  <residues>
AGGCGCCTGT

>  <switch fluorescence ratio>
1.02

$$$$
>  <residues>
TCTCAGTCAC

>  <switch fluorescence ratio>
1.08

$$$$
>  <residues>
AGCGAAATCT

>  <switch fluorescence ratio>
1.08

$$$$
>  <residues>
TATGGGGTGG

>  <switch fluorescence ratio>
1.01

$$$$
>  <residues>
TCGACCTAAT

>  <switch fluorescence ratio>
1.08

$$$$
>  <residues>
GAAATTTACT

>  <switch fluorescence ratio>
0.991

$$$$
>  <residues>
TTCTCTTTTT

>  <switch fluorescence ratio>
1.02

$$$$
>  <residues>
TATGCTAAGG

>  <switch fluorescence ratio>
0.996

$$$$
>  <residues>
AAGGAAACGT

>  <switch fluorescence ratio>
1.04

$$$$
>  <residues>
GACCCGGCTA

>  <switch fluorescence ratio>
1.04

$$$$
>  <residues>
CAGTAATTGC

>  <switch fluorescence ratio>
1.05

$$$$
>  <residues>
GATTTCAGCT

>  <switch fluorescence ratio>
0.997

$$$$
>  <residues>
GGTGTGGGCG

>  <switch fluorescence ratio>
0.983

$$$$
>  <residues>
CCATGTTGAT

>  <switch fluorescence ratio>
1

$$$$
>  <residues>
GCTGTAAGGC

>  <switch fluorescence ratio>
1.01

$$$$
>  <residues>
TTGTTGTTTG

>  <switch fluorescence ratio>
1.03

$$$$
>  <residues>
TACCTAGGGG

>  <switch fluorescence ratio>
1.06

$$$$
>  <residues>
AGTTATCGAA

>  <switch fluorescence ratio>
1.01

$$$$
>  <residues>
GATTGGGTGT

>  <switch fluorescence ratio>
1.03

$$$$
>  <residues>
AATCTTGATT

>  <switch fluorescence ratio>
1.2

$$$$
>  <residues>
GGGGGGCGCA

>  <switch fluorescence ratio>
1.02

$$$$
>  <residues>
CAATGCGGGG

>  <switch fluorescence ratio>
1.01

$$$$
>  <residues>
GATTATTCTT

>  <switch fluorescence ratio>
1.03

$$$$
>  <residues>
GCAGTTAGGG

>  <switch fluorescence ratio>
0.995

$$$$
